Reference source: the supplement of paper PMC9233669

# Test system: biotinyl-Phe-oxazolone
# experiment description: self-aminoacylation, catalytic enhancement (BFO) (fold over background); higher = more active; k-Seq, kA / k0A0; sequences stand for … in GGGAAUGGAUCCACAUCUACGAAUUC…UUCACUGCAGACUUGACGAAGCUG
This sample holds only a part of the variants without activity.
# binarize self-aminoacylation: threshold 6 inclusive, high side Y, low side N

Solved entries (count: 3):
AAUUUUGCUGAUAGUCGCAAG [Fam3.1 aminoacylation ribozyme variant]: N
CAGUUUUCUAAUAGUCGCAAG [Fam3.1 aminoacylation ribozyme variant]: N
AUACUUCAAACAAUCGGCCUG [Fam1A.1 aminoacylation ribozyme variant]: Y

Now let's try a different one.
IN: Given the entry AUUCGCCUAGGUCAUAGGGUG [Fam2.2 aminoacylation ribozyme variant] , answer whether its self-aminoacylation meets or surpasses 6.
OUT: Y

###

# Test system: biotinyl-Met-oxazolone
# experiment description: self-aminoacylation, catalytic enhancement (BMO) (fold over background); higher = more active; k-Seq, kA / k0A0; sequences stand for … in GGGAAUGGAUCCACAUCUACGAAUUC…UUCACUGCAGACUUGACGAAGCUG
Variants at the floor of the assay were thinned out.
test readout: self-aminoacylation

AUUCACCUAGUUCAUAGGGUG [Fam2.2 aminoacylation ribozyme variant]: 3.63
AUUAUCCUCGUCAUCGAGUGA [Fam2.1 aminoacylation ribozyme variant]: 2.95
AUUACCAUGCUCAUCGAGUGA [Fam2.1 aminoacylation ribozyme variant]: 2.63
AUUCACGUAGGUCAUCGAGUG [Fam2.2 aminoacylation ribozyme variant]: 2.92
CCAUACUUCAAGCAAUCGGCC [Fam1B.1 aminoacylation ribozyme variant]: 2.36
AUUUCCCUGGUCAUCGAGCGA [Fam2.1 aminoacylation ribozyme variant]: 2.25

Record self-aminoacylation per entry; entries follow.
1. AAAUUUGCUAAUUGUCGCAAG [Fam3.1 aminoacylation ribozyme variant]
2. CUACCUCAAACAAUCGGGCUG [Fam1A.1 aminoacylation ribozyme variant]
3. AUACACCUAGGUCAUCGGCUG [Fam2.2 aminoacylation ribozyme variant]

OUT:
2.03
2.02
2.13

###

# Test system: biotinyl-Leu-oxazolone
# experiment description: self-aminoacylation, catalytic enhancement (BLO) (fold over background); higher = more active; k-Seq, kA / k0A0; sequences stand for … in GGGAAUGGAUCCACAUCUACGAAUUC…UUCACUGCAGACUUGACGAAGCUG
Variants at the floor of the assay were thinned out.
test readout: self-aminoacylation
One number for each entry.

AUUACCUUCGUCAUCGAGUGA [Fam2.1 aminoacylation ribozyme variant]: 2.18
CCACACUUCAAGCCAUCGCUC [Fam1B.1 aminoacylation ribozyme variant]: 2.19

Record self-aminoacylation per entry; entries follow.
1. AUUCACGUAGGUCAUCGAGUG [Fam2.2 aminoacylation ribozyme variant]
2. CCACGCUUCAAACAAUCGGUC [Fam1B.1 aminoacylation ribozyme variant]

OUT:
[2.67, 2.17]

Record self-aminoacylation per entry; entries follow.
1. CUACUUCAAUCAAUCGGCCUG [Fam1A.1 aminoacylation ribozyme variant]
2. CCUCACUUCAAGCAAUCGGGC [Fam1B.1 aminoacylation ribozyme variant]
3. AUUACCCUGGUCAACGAGUGU [Fam2.1 aminoacylation ribozyme variant]

OUT:
[2.56, 2.32, 3]
